Biological target: IRAK4 (Homo sapiens)
Assay: Hibit fluorescence detection of proteolysis (IRAK4-HiBiT in HEK293T cells)
Assay type: cell-based
Design: host or cells: HEK293T (ATCC)
Conditions: HEK-293T
Where a name gives a salt, the structure may show the parent alone.
Measured Property: Dmax

Worked cases, answers included:
[[record]]
compound = "CN1CCN(c2ccn3ncc(-c4cn(-c5cn([C@H]6CC[C@H](CN7CCC8(CC7)CCN(c7cccc9c7n(C)c(=O)n9C7CCC(=O)NC7=O)C8)CC6)nc5C(F)F)nn4)c3n2)CC1 (stereo partly shown) [Compound 228]"
result = "70 to 80%"

[[record]]
compound = "Cn1c(=O)n(C2CCC(=O)NC2=O)c2cccc(C#CCOC3CCN(C[C@H]4CC[C@H](n5cc(-n6cc(-c7ccc8cc(C(N)=O)cnn78)nn6)c(C(F)F)n5)CC4)CC3)c21 (stereo partly shown) [Example 65]"
result = "60 to 70%"

[[record]]
compound = "CN1CCN(c2ccn3ncc(-c4cn(-c5cn([C@H]6CC[C@H](CN7CCN(c8cccc9c8n(C)c(=O)n9C8CCC(=O)NC8=O)CC7)CC6)nc5C(F)F)nn4)c3n2)CC1 (stereo partly shown) [Compound 227]"
result = "60 to 70%"


IN: Recorded Dmax of NC(=O)c1cnn2c(-c3cn(-c4cn([C@H]5CC[C@H](CN6CCN(c7ccc8c(c7)CN(C7CCC(=O)NC7=O)C8=O)CC6)CC5)nc4C(F)F)nn3)ccc2c1 (stereo partly shown) [Example 72] , please.
OUT: 60 to 70%

IN: Then Cn1c(=O)n(C2CCC(=O)NC2=O)c2cccc(NC3CCN(C[C@H]4CC[C@H](n5cc(-n6cc(-c7ccc8cc(C(N)=O)cnn78)nn6)c(C(F)F)n5)CC4)CC3)c21 (stereo partly shown) [Example 66] ?
OUT: 70 to 80%

IN: Proceed to Cn1c(=O)n(C2CCC(=O)NC2=O)c2cccc(N3CCC4(CCN(C[C@H]5CC[C@H](n6cc(-n7cc(-c8cnn9ccc(N%10CCNCC%10)nc89)nn7)c(C(F)F)n6)CC5)CC4)C3)c21 (stereo partly shown) [Example 130, dihydrochloride]
OUT: > 80%

IN: Also check Cn1c(=O)n(C2CCC(=O)NC2=O)c2cccc(N3CCC4(CCN(C[C@H]5CC[C@H](n6cc(-n7cc(-c8cnn9ccc(N%10CCOCC%10)nc89)nn7)c(C(F)F)n6)CC5)CC4)CC3)c21 (stereo partly shown) [Example 36]
OUT: > 80%

IN: Would you mind doing Cn1c(=O)n(C2CCC(=O)NC2=O)c2cccc(N3CCC(N4CCN(C[C@H]5CC[C@H](n6cc(-n7cc(-c8cnn9ccc(N%10CCOCC%10)nc89)nn7)c(C(F)F)n6)CC5)CC4)CC3)c21 (stereo partly shown) [Example 34] as well?
OUT: > 80%

IN: Input Cn1c(=O)n(C2CCC(=O)NC2=O)c2cccc(N3CCN(C[C@H]4CC[C@H](n5cc(-n6cc(-c7cnn8ccc(N9CCC[C@H](N)C9)nc78)nn6)c(C(F)F)n5)CC4)CC3)c21 (stereo partly shown) [Example 115]
OUT: > 80%

IN: Moving on to the next compound: CN1CCN(c2ccn3ncc(-c4cn(-c5cn([C@H]6CC[C@H](CN7CCC8(CC7)CCN(c7cccc9c7n(C)c(=O)n9C7CCC(=O)NC7=O)CC8)CC6)nc5C(F)F)nn4)c3n2)CC1 (stereo partly shown) [Compound 233]
OUT: 70 to 80%

IN: Now consider Cn1c(=O)n(C2CCC(=O)NC2=O)c2cccc(N3CCC4(CC3)CN(C[C@H]3CC[C@H](n5cc(-n6cc(-c7ccc8cc(C(N)=O)cnn78)nn6)c(C(F)F)n5)CC3)CCO4)c21 (stereo partly shown) [Example 89] and answer again.
OUT: > 80%

IN: Then this compound: Cn1c(=O)n(C2CCC(=O)NC2=O)c2cccc(N3C4CCC3CN(C[C@H]3CC[C@H](n5cc(-n6cc(-c7cnn8ccc(N9CCOCC9)nc78)nn6)c(C(F)F)n5)CC3)C4)c21 (stereo partly shown) [Example 48]
OUT: 60 to 70%

IN: // same read-out, input: C[C@H]1CN(c2cccc3c2n(C)c(=O)n3C2CCC(=O)NC2=O)CCN1C[C@H]1CC[C@H](n2cc(-n3cc(-c4cnn5ccc(N6CCOCC6)nc45)nn3)c(C(F)F)n2)CC1 (stereo partly shown) [Example 52]
OUT: 70 to 80%

###

Reported DC50 by item:
Target: IRAK4 (Homo sapiens, UniProt Q9NWZ3)
Sequence (Q9NWZ3 1-460): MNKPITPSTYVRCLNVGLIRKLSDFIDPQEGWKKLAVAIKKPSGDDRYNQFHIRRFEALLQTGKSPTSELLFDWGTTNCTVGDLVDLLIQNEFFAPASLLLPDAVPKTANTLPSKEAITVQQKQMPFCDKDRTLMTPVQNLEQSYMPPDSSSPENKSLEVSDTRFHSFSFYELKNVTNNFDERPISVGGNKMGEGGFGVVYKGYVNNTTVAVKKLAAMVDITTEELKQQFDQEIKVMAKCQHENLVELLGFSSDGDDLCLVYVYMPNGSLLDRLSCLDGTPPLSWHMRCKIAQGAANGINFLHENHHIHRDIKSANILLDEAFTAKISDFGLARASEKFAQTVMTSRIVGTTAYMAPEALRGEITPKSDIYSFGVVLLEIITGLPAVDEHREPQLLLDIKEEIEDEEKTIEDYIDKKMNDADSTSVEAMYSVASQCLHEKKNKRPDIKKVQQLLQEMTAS
Assay: Hibit fluorescence detection of proteolysis (IRAK4-HiBiT in HEK293T cells)
Type: cell-based
Set-up: host or cells: HEK293T (ATCC)
Conditions: IRAK4-HiBiT, HEK293T cells, 24 h
Counter-ions that a name gives are not always drawn.

[[record]]
compound = "Cn1c(=O)n(C2CCC(=O)NC2=O)c2cccc(N[C@H]3CC[C@H](N(C)C[C@H]4CC[C@H](n5cc(-n6cc(-n7ccc8cc(C(N)=O)cnc87)nn6)c(C(F)F)n5)CC4)CC3)c21 (stereo partly shown) [Example 102]"
measured_property = "DC50"
result = "< 0.5 nM"

[[record]]
compound = "Cn1c(=O)n(C2CCC(=O)NC2=O)c2cccc(N3CCN(C4CCN(C[C@H]5CC[C@H](n6cc(-n7cc(-c8cnn9ccc(N[C@H]%10CCCC[C@H]%10O)nc89)nn7)c(C(F)F)n6)CC5)CC4)CC3)c21 (stereo partly shown) [Example 149]"
measured_property = "DC50"
result = "< 0.5 nM"


IN: So what does the record say about DC50 for Cn1c(=O)n(C2CCC(=O)NC2=O)c2cccc(N3CCC(N4CCN(C[C@H]5CC[C@H](n6cc(-n7cc(-c8cnn9ccc(N%10CCC[C@H](O)C%10)nc89)nn7)c(C(F)F)n6)CC5)CC4)CC3)c21 (stereo partly shown) [Example 146] ?
OUT: < 0.5 nM

IN: Same read-out for Cn1c(=O)n(C2CCC(=O)NC2=O)c2cccc(C#CCOC3CCN(C[C@H]4CC[C@H](n5cc(-n6cc(-c7cnn8ccc(N9CCOCC9)nc78)nn6)c(C(F)F)n5)CC4)CC3)c21 (stereo partly shown) [Example 7] ?
OUT: < 0.5 nM

IN: Do the same for C[C@H]1CN(c2cccc3c2n(C)c(=O)n3C2CCC(=O)NC2=O)CCN1C[C@H]1CC[C@H](n2cc(-n3cc(-c4cnn5ccc(N6CCC[C@H](N)C6)nc45)nn3)c(C(F)F)n2)CC1 (stereo partly shown) [Example 285] please
OUT: < 0.5 nM

IN: Then what about the compound CN(Cc1cccc2c1n(C)c(=O)n2C1CCC(=O)NC1=O)CC1CCN(C[C@H]2CC[C@H](n3cc(-n4cc(-c5cnn6ccc(N7CCOCC7)nc56)nn4)c(C(F)F)n3)CC2)CC1 (stereo partly shown) [Example 3] ?
OUT: < 0.5 nM

IN: Next entry: Cn1c(=O)n(C2CCC(=O)NC2=O)c2cccc(N3CCN(C4CCN(C[C@H]5CC[C@H](n6cc(-n7cc(-c8cnn9ccc(N%10CCC[C@H](N)C%10)nc89)nn7)c(C(F)F)n6)CC5)CC4)CC3)c21 (stereo partly shown) [Example 117, hydrochloride]
OUT: 1 to 5 nM

###

Target: IRAK4 (Homo sapiens, UniProt Q9NWZ3)
Sequence (Q9NWZ3 1-460): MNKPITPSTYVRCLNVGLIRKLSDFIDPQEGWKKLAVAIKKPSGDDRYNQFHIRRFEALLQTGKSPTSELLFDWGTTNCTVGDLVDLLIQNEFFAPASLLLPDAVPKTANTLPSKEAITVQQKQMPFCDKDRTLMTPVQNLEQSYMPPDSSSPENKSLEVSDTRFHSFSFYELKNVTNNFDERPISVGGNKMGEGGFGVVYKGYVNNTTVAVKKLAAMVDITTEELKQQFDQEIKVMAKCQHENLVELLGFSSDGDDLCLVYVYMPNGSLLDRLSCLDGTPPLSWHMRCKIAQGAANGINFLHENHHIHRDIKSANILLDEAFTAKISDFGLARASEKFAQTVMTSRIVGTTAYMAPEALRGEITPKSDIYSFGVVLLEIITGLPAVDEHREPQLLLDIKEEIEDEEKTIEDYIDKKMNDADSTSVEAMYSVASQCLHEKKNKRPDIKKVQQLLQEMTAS
Assay: Hibit fluorescence detection of proteolysis (IRAK4-HiBiT in HEK293T cells)
Format: cell-based
Set-up: host or cells: HEK293T (ATCC)
Conditions: HEK-293T
Documented Dmax across a set of compounds

[[record]]
compound = "Cn1c(=O)n(C2CCC(=O)NC2=O)c2cccc(N3CCN(C4CN(C[C@H]5CC[C@H](n6cc(-n7cc(-c8ccc9cc(C(N)=O)cnn89)nn7)c(C(F)F)n6)CC5)C4)CC3)c21 (stereo partly shown) [Example 67]"
tested_on = "IRAK4 (Homo sapiens, UniProt Q9NWZ3)"
result = "> 80%"

[[record]]
compound = "Cn1c(=O)n(C2CCC(=O)NC2=O)c2cccc(C#CCOC3CCN(C[C@H]4CC[C@H](n5cc(-n6cc(-c7cnn8ccc(N9CCOCC9)nc78)nn6)c(C(F)F)n5)CC4)CC3)c21 (stereo partly shown) [Example 7]"
tested_on = "IRAK4 (Homo sapiens, UniProt Q9NWZ3)"
result = "60 to 70%"


IN: Form field: Dmax recorded for Cn1c(=O)n(C2CCC(=O)NC2=O)c2cccc(N3CCN(C4CCN(C[C@H]5CC[C@H](n6cc(-n7cc(-c8cnn9ccc(NCC%10CC%10)nc89)nn7)c(C(F)F)n6)CC5)CC4)CC3)c21 (stereo partly shown) [Example 110] with IRAK4 (Homo sapiens, UniProt Q9NWZ3) (enter value)
OUT: > 80%

IN: What would you report for NC(=O)c1cnn2c(-c3cn(-c4cn(C5CCN(CC6CN(c7ccc8c(c7)C(=O)N(C7CCC(=O)NC7=O)C8=O)C6)CC5)nc4C(F)F)nn3)ccc2c1 (stereo not shown) [Example 75] ?
OUT: > 80%

IN: Also, Cn1c(=O)n(C2CCC(=O)NC2=O)c2cccc(N3CCC4(CCN(C[C@H]5CC[C@H](n6cc(-n7cc(-c8cnn9ccc(N%10CCOCC%10)nc89)nn7)c(C(F)F)n6)CC5)CC4)C3)c21 (stereo partly shown) [Example 45] please.
OUT: 70 to 80%

IN: Similarly, Cn1c(=O)n(C2CCC(=O)NC2=O)c2cccc(C#CCOC3CCN(C[C@H]4CC[C@H](n5cc(-n6cc(-n7ccc8cc(C(N)=O)cnc87)nn6)c(C(F)F)n5)CC4)CC3)c21 (stereo partly shown) [Example 106] ?
OUT: 60 to 70%

IN: Next record, please: Cn1c(=O)n(C2CCC(=O)NC2=O)c2cccc(N3CCN(C[C@H]4CC[C@H](n5cc(-n6cc(-c7cnn8ccc(NCC9CC9)nc78)nn6)c(C(F)F)n5)CC4)CC3)c21 (stereo partly shown) [Compound 225]
OUT: 70 to 80%
